test: Therapeutic index (CC50/EC50) for RSV infected Hep2 cells; type: cell-based, HEp-2; conditions: human, read-out: Ratio CC50/EC50
Lab note: compare selectivity ratio against 80. Equal or greater, write 1.0. Smaller, write 0.0.

Would you please look over these solved cases?
# mol smiles, assigned class
data = [
    ("O=c1n(Cc2ccccc2)c2ccccc2n1Cc1nc2ccccc2[nH]1", 1.0),
    ("CC(C)CCn1c(Cn2c(=O)n(CCCc3nnn[nH]3)c3ccccc32)nc2ccccc21", 1.0),
    ("O=c1n(Cc2ccc(O)cc2)c2ccccc2n1Cc1nc2ccccc2[nH]1", 1.0),
    ("CC(C)CCn1c(Cn2c(=O)n(Cc3ccccc3C(=O)O)c3ccccc32)nc2ccccc21", 1.0),
    ("CC(C)CCn1c(Cn2c(=O)n(Cc3ccc(CP(=O)(O)O)cc3)c3ccccc32)nc2ccccc21", 0.0),
    ("CC(C)CCn1c(Cn2c(=O)n(Cc3ccc(C(=O)N[C@@H](CC(=O)O)C(=O)O)cc3)c3ccccc32)nc2ccccc21", 1.0),
    ("CC(C)CCn1c(Cn2c(=O)n(CCCCS(=O)(=O)O)c3ccccc32)nc2ccccc21", 0.0),
    ("C=C(C)n1c(=O)n(Cc2nc3ccccc3n2Cc2nn[nH]n2)c2ccccc21", 0.0),
    ("CC(C)CCn1c(Cn2c(=O)n(Cc3ccc(C(=O)N[C@@H](CP(=O)(O)O)C(=O)O)cc3)c3ccccc32)nc2ccccc21", 1.0),
    ("CC(C)CCn1c(Cn2c(=O)n(Cc3ccc(C(=O)O)cc3)c3ccccc32)nc2ccccc21", 1.0),
]

Has "O=C(O)Cn1c(=O)n(Cc2nc3ccccc3[nH]2)c2ccccc21" a recorded selectivity ratio greater than or equal to 80?
1.0

Does "Oc1nc2ccccc2n1Cc1nc2ccccc2n1CCn1cnnn1" have a reported selectivity ratio of at least 80?
0.0

Given "CC(C)CCn1c(Cn2c(=O)n(Cc3ccc(Cn4c(=O)ccn(CC(=O)O)c4=O)cc3)c3ccccc32)nc2ccccc21" , state whether its selectivity ratio is at least 80.
1.0

###

assay: Therapeutic index (CC50/EC50) for RSV infected Hep2 cells; format: cell-based, HEp-2; details: human, read-out: Ratio CC50/EC50
Tag: true (1) if measured selectivity ratio is not below 3000, false (0) if it is.

Some solved cases for reference:
# mol smiles, assigned class
records = [
    ("O=C(O)c1ccc(Cn2c(=O)n(Cc3nc4ccccc4n3CCCO)c3ccccc32)cc1", "true (1)"),
    ("CC(C)CCn1c(Cn2c(=O)n(CC(=O)NS(=O)(=O)c3ccccc3)c3ccccc32)nc2ccccc21", "false (0)"),
    ("O=C(O)CN(CC(=O)O)C(=O)c1ccc(Cn2c(=O)n(Cc3nc4ccccc4n3CCCCO)c3ccccc32)cc1", "false (0)"),
    ("C=C(C)n1c(=O)n(Cc2nc3ccccc3n2CCc2nn[nH]n2)c2ccccc21", "true (1)"),
    ("O=C(O)c1cccc(Cn2c(=O)n(Cc3nc4ccccc4[nH]3)c3ccccc32)c1", "true (1)"),
    ("O=C(O)Cn1c(=O)n(Cc2nc3ccccc3n2CCCO)c2ccccc21", "false (0)"),
    ("CC(C)CCn1c(Cn2c(=O)n(CCN(C)C)c3ccccc32)nc2ccccc21", "false (0)"),
    ("CC(C)CCn1c(Cn2c(=O)n(Cc3cccc(C(=O)O)c3)c3ccccc32)nc2ccccc21", "false (0)"),
    ("CC(C)CCn1c(Cn2c(=O)n(Cc3ccc(Cn4c(=O)ccn(CC(=O)N[C@@H](CC(=O)O)C(=O)O)c4=O)cc3)c3ccccc32)nc2ccccc21", "true (1)"),
    ("Oc1nc2ccccc2n1Cc1nc2ccccc2[nH]1", "false (0)"),
]

I'd appreciate it if you could say whether "CN(C)CCCn1c(Cn2c(O)nc3ccccc32)nc2ccccc21" has selectivity ratio at least equal to 3000.
false (0)

Could you verify whether the entry "O=c1n(Cc2nc3ccccc3[nH]2)c2ccccc2n1Cc1ccccc1S(=O)(=O)O" shows selectivity ratio of no less than 3000?
true (1)

Hello, I need to know if "COc1ccc(Cn2c(=O)n(Cc3nc4ccccc4[nH]3)c3ccccc32)cc1" has measured selectivity ratio not below 3000. Thanks!
false (0)

Can "O=C(O)c1ccc(Cn2c(=O)n(Cc3nc4ccccc4n3CCCCO)c3ccccc32)cc1" be said to have selectivity ratio at or above 3000?
true (1)

###

test: Therapeutic index (CC50/EC50) for RSV infected Hep2 cells; format: cell-based, HEp-2; settings: human, read-out: Ratio CC50/EC50
Reported selectivity ratio is given for each of the following molecules.
Form rule: numeric answer, no unit written next to it.

Reference set, count: 3
# mol smiles, metric name, observed
data = [
    ("CC(C)CCn1c(Cn2c(=O)n(CCCCC(=O)O)c3ccccc32)nc2ccccc21", "selectivity ratio", 2060),
    ("CC(C)CCn1c(Cn2c(=O)n(CC(=O)NS(C)(=O)=O)c3ccccc32)nc2ccccc21", "selectivity ratio", 247),
    ("CC(C)CCn1c(Cn2c(=O)n(Cc3ccc(P(=O)(O)O)cc3)c3ccccc32)nc2ccccc21", "selectivity ratio", 3000),
]

Shifting focus to the molecule that follows.
Entry "CC(C)CCn1c(Cn2c(=O)n(CCCCc3nnn[nH]3)c3ccccc32)nc2ccccc21" : reported selectivity ratio = ?
993

###

Below, each entry is listed alongside its reported selectivity ratio.
assay: Therapeutic index (CC50/EC50) for RSV infected Hep2 cells; type: cell-based, HEp-2; settings: human, read-out: Ratio CC50/EC50
Give only the figure.

Example entries and their recorded answers appear below.
# mol smiles, selectivity ratio
measured = [
    ("CC(C)CCn1c(Cn2c(=O)n(CCCCCC(=O)O)c3ccccc32)nc2ccccc21", 1100),
    ("CC(C)CCn1c(Cn2c(=O)n(CCCN(C)C)c3ccccc32)nc2ccccc21", 18),
    ("CC(C)CCn1c(Cn2c(=O)n(CCCC(=O)O)c3ccccc32)nc2ccccc21", 1840),
    ("CC(C)CCn1c(Cn2c(=O)n(CCCCCc3nnn[nH]3)c3ccccc32)nc2ccccc21", 6920),
]

Consider the additional compound presented here.
Fill blank: measured selectivity ratio of the compound "CC(C)CCn1c(Cn2c(=O)n(CCC(=O)O)c3ccccc32)nc2ccccc21" is ____.
6810

###

test: Therapeutic index (CC50/EC50) for RSV infected Hep2 cells; type: cell-based, HEp-2; settings: human, read-out: Ratio CC50/EC50
Measured selectivity ratio of individual entries

Example cases with answers are listed next.
# mol smiles, observed
data = [
    ("CC(C)CCn1c(Cn2c(=O)n(Cc3nn[nH]n3)c3ccccc32)nc2ccccc21", "> 420"),
    ("CC(C)CCn1c(Cn2c(=O)n(Cc3cc(C(=O)O)cc(C(=O)O)c3)c3ccccc32)nc2ccccc21", "> 256"),
    ("CC(C)CCn1c(Cn2c(=O)n(CCCS(=O)(=O)O)c3ccccc32)nc2ccccc21", 3010),
    ("CC(C)CCn1c(Cn2c(=O)n(Cc3ccccc3S(=O)(=O)O)c3ccccc32)nc2ccccc21", "> 2710"),
]

Give the measured selectivity ratio of "Cn1c(=O)n(Cc2nc3ccccc3[nH]2)c2ccccc21" .
> 340

###

Measured selectivity ratio, listed per entry.
test: Therapeutic index (CC50/EC50) for RSV infected Hep2 cells; format: cell-based, HEp-2; details: human, read-out: Ratio CC50/EC50

Suppose we examine the molecule "C=C(C)n1c(=O)n(Cc2nc3ccccc3n2CCCc2nnn[nH]2)c2ccccc21" ; what selectivity ratio value has been reported?
> 23

If you can, please state the reported selectivity ratio value of "O=c1n(Cc2ccc(P(=O)(O)O)cc2)c2ccccc2n1Cc1nc2ccccc2[nH]1" .
> 473

Please report the recorded selectivity ratio for "CC(C)CCn1c(Cn2c(=O)n(Cc3ccccc3C(=O)N[C@@H](CC(=O)O)C(=O)O)c3ccccc32)nc2ccccc21" .
≥ 25700
